Target: T1, biotinylated native human ApoC3 (human, UniProt P02656 21-99, biotinylated (site not stated))
T1 construct: also called biotinylated human ApoC3
T1 sequence (P02656 21-99): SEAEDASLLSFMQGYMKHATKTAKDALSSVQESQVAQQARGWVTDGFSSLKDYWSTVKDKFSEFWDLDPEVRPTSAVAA
Assay: SPR, IgG1 over biotinylated ApoC3 on SA chip, pH 5.5
reported metric: Kd (nM)
Give bare numbers, in nM.

mAb6 (antibody, IgG1, V domains shown, Produced as full length IgG1 (kappa) in ExpiCHO-S cells; also called humanized anti-ApoC3 antibody mAb6) VH: QLVESGGGLVQPGGSLRLSCAASGFTFGTYSMRWVRQAPGKGLEWVSSIHTEGGGTAYRDSVKGRFTISRDNAKNTLYLQMNSLRAEDTAVYYCVIAGYSDWGQGTLVTVSS VL: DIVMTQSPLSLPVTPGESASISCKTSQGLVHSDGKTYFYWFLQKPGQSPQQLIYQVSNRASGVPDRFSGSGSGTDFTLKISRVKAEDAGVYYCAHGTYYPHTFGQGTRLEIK :: 0.35
mAb19 (antibody, IgG1, V domains shown, Produced as full length IgG1 (kappa) in ExpiCHO-S cells; also called humanized anti-ApoC3 antibody mAb19) VH: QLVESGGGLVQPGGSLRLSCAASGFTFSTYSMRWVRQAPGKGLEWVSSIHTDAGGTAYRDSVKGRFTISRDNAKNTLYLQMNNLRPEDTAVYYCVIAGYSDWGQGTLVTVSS VL: DIVMTQSPGSLSVTPGEPASISCKTSQGLVHSGGKTYFYWFLQKPGQSPQQLIYQVSNRASGVPDRFTGSGSGTDFTLKISGVEAEDAGVYYCAQGTYYPHTFGQGTRLEIK :: 0.42

Please give the documented Kd of mAb2 (antibody, IgG1, V domains shown, Produced as full length IgG1 (kappa) in ExpiCHO-S cells; also called humanized anti-ApoC3 antibody mAb2) VH: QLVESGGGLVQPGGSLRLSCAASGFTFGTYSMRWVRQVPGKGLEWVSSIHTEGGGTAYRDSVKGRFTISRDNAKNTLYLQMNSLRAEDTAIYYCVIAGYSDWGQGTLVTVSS VL: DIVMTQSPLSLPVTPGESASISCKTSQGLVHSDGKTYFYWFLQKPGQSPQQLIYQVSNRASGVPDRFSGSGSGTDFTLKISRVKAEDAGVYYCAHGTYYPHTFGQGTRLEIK 0.28

Just for reference, patent US20200239555A1 is where these values come from.
